System: SW-620 colon
test: NCI-60 one-dose screen, 48 h (100 = growth as untreated, 0 = no growth, -100 = all killed)
condition parameters: 10 µM
About 83,000 compounds went through this panel and 20% of them were active in at least one assay; those are over-represented in the sample as a whole.
readout name: growth (%)
Provide the reading as a plain figure in %.

Lookup: growth / SW-620 colon / COc1cc(-c2nc3ccc(C)cc3[nH]2)ccc1OCc1nnc(-c2ccccc2Br)o1 91.9

Lookup: growth / SW-620 colon / CC1[C@H]2[C@H](C[C@H]3[C@@H]4CC=C5c6sc(Nc7cccc(Cl)n7)nc6CC[C@]5(C)[C@H]4CC[C@@]32C)O[C@]12CC[C@@H](C)CO2 (some centres undefined) 104

Lookup: growth / SW-620 colon / Cn1cc(-c2cc3nc(-c4c[nH]c5ccccc45)cc(N)n3n2)c2cc(Cl)ccc21 -61

Lookup: growth / SW-620 colon / Cc1ccc2c(c1)C(=O)/C(=C/c1c[nH]c3ccccc13)S2 28.6

* * *

Tested on: NCI-H522 lung
test: NCI-60 one-dose screen, 48 h (100 = growth as untreated, 0 = no growth, -100 = all killed)
condition parameters: 10 µM
Compounds without any hit were thinned out: in the full panel of roughly 83,000, 20% have a hit.
Use 40% as the dividing line for growth, with the line itself on the satisfied side and lower values as not satisfied.

Quick check, growth >= 40%? O=C(CC(=O)Nc1ccc(Oc2ncnc3scc(Nc4n[nH]c(=S)s4)c23)cc1)Nc1ccc(Br)cc1 satisfied

Quick check, growth >= 40%? CC1(C)CC[C@]2(C(=O)O)CC[C@]3(C)C(=CCC4[C@@]5(C)C[C@@H](O)[C@@H]6OC(c7cccc(F)c7)OC[C@@]6(C)C5CC[C@]43C)C2C1 (stereo not given in full) not satisfied

Quick check, growth >= 40%? C#CCOc1cc(N(CC)CC)ccc1C(C(=O)NC(C)(C)C)N(C(=O)C1CCc2cc(F)ccc2O1)c1ccc(F)cc1F (stereo not given) not satisfied

Quick check, growth >= 40%? Cn1cc(/C=C(/SS/C(=C/c2cn(C)c3cccc(C(=O)O)c23)C(=O)O)C(=O)O)c2c(C(=O)O)cccc21 satisfied

Quick check, growth >= 40%? COc1cc(-c2nc3ccc(C)cc3[nH]2)ccc1OCc1nnc(-c2ccccc2Br)o1 satisfied

Quick check, growth >= 40%? O=C(CN1CCN(c2ncnc3c2cnn3-c2ccccc2)CC1)Nc1ccc(Br)cc1 not satisfied

Quick check, growth >= 40%? Cn1cc(-c2nc(N)nnc2-c2c[nH]c3ccccc23)c2cc(Br)cnc21 not satisfied

Quick check, growth >= 40%? Cn1cc(-c2cc(N)n3nc(-c4cn(C)c5ccccc45)cc3n2)c2cc(F)ccc21 not satisfied

Quick check, growth >= 40%? Cc1cc(N=C2NC(=O)S/C2=C\c2ccc(F)cc2)n[nH]1 not satisfied

Quick check, growth >= 40%? COc1cccc(C(=O)CSc2nc(-c3ccc(OCc4ccccc4)c(OC)c3)c(C#N)c(=O)[nH]2)c1 satisfied

Quick check, growth >= 40%? O=C(CN1CCN(c2ncnc3c2cnn3-c2ccccc2)CC1)Nc1ccc(Cl)cc1 not satisfied

Quick check, growth >= 40%? Cc1ccc(COc2ccc(NC(=O)Nc3ccc(Cl)c(C(F)(F)F)c3)cc2)cc1 satisfied

Quick check, growth >= 40%? Cn1cc(-c2nnc(N)nc2-c2c[nH]c3ccccc23)c2cc(Br)cnc21 not satisfied

Quick check, growth >= 40%? COc1ccc(OC)c(-n2cc(C#N)c(N)c2C(=O)c2ccc(Cl)cc2Cl)c1 not satisfied

Quick check, growth >= 40%? COc1ccc(Cc2nn(CC(=O)N/N=C/c3ccc(Br)cc3)c(=O)c3c(C)noc23)cc1 not satisfied

Quick check, growth >= 40%? O=C(CSc1nc2ccccc2c(=O)n1-c1ccc(Cl)cc1)Nc1ccc(-c2nc3ccccc3[nH]2)cc1 not satisfied

Quick check, growth >= 40%? CC1(C)CC(=O)C2=C(C1)N(Cc1ccc(C(=O)O)cc1)C1=C(C(=O)CC(C)(C)C1)C2c1ccc(Cl)cc1 satisfied

Quick check, growth >= 40%? C#C[C@]1(O)CC[C@H]2[C@@H]3CC=C4c5sc(Nc6cc(C)cc(C)n6)nc5CC[C@]4(C)[C@H]3CC[C@@]21C not satisfied

Quick check, growth >= 40%? COc1ccc(C2OC[C@@]3(C)C4CC[C@]5(C)C(CC=C6C7CC(C)(C)CC[C@]7(C(=O)O)CC[C@]65C)[C@@]4(C)C[C@@H](O)[C@@H]3O2)cc1 (stereo not given in full) satisfied

Quick check, growth >= 40%? Cn1cc(-c2cc3nc(-c4c[nH]c5ccccc45)cc(N)n3n2)c2cc(Cl)ccc21 not satisfied

Quick check, growth >= 40%? Cc1ccc(S(=O)(=O)N2CCN(S(=O)(=O)c3oc(-c4ccccc4)nc3C#N)CC2)cc1 satisfied

Quick check, growth >= 40%? COc1ccc(Cc2nn(CC(=O)N/N=C/c3ccc([N+](=O)[O-])cc3)c(=O)c3c(C)noc23)cc1 satisfied

Quick check, growth >= 40%? Fc1ccc(-c2csc(Nc3cccc(Nc4nc(-c5ccc(F)cc5)cs4)c3)n2)cc1 not satisfied

Quick check, growth >= 40%? COc1ccccc1-n1cc(C#N)c(N)c1C(=O)c1ccc(Cl)cc1Cl not satisfied

Quick check, growth >= 40%? COc1cc(C2CC(c3ccccc3)=Nc3c(N)nc(N)nc3N2)ccc1Oc1nc(NCCO)nc(N2CCOCC2)n1 (stereo not given) satisfied

Quick check, growth >= 40%? C#C[C@]1(O)CC[C@H]2[C@@H]3CC=C4c5sc(Nc6ccc(C(F)(F)F)cn6)nc5CC[C@]4(C)[C@H]3CC[C@@]21C not satisfied

Quick check, growth >= 40%? COc1ccc(C2c3sc4ccc(C)cc4c3Oc3nc[nH]c(=O)c32)cc1 (stereo not given) satisfied

Quick check, growth >= 40%? CC(C)(C)c1cc(/C=C2\S/C(=N/c3ncn[nH]3)NC2=O)cc(C(C)(C)C)c1O not satisfied

Quick check, growth >= 40%? CCn1c(SCC(=O)Nc2ccc(-c3nc4ccccc4[nH]3)cc2)nc2ccccc2c1=O not satisfied
